Task for the reader: assign each of the following compounds its reported IC50.
# Experimental Target: His-tagged recombinant human AXL cytoplasmic domain (Homo sapiens (Human), UniProt P30530)
# Sequence (P30530 473-894): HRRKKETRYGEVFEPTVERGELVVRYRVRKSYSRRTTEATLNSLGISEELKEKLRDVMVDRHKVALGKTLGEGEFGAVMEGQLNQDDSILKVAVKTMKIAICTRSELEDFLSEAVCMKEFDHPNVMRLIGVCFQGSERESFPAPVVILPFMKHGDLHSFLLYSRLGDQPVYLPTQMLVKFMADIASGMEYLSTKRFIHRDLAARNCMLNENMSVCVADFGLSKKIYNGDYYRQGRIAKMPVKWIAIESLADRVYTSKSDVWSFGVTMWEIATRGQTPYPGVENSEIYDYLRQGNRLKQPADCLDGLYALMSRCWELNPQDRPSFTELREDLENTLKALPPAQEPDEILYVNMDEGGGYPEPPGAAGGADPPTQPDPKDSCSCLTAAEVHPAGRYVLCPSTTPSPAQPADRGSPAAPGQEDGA
# Measurement Notes: AXL Enzyme Assay (LanthaScreen Eu Kinase Binding, TR-FRET)
# Condition Summary: averaged IC50

[ask] Find the recorded IC50 belonging to CCNc1cc2c(cn1)c(-c1cnn(CC(C)(O)CO)c1)nn2[C@H]1CC[C@@H](Oc2nccc(C(F)(F)F)c2F)CC1 (stereo partly shown) and report it.
[reply] < 10 nM

[ask] Give its IC50 value. Item: CNc1cc2c(cn1)c(-c1ccc(=O)n(C)c1)nn2[C@H]1CC[C@@H](Oc2cccnc2C(F)(F)F)CC1
[reply] < 10 nM

[ask] Query: IC50; subject: CCNc1cc2c(cn1)c(-c1cnn(C)c1)nn2[C@H]1CC[C@@H](Oc2cccc(C(F)(F)F)c2F)CC1
[reply] < 10 nM

[ask] // lookup IC50 for CCNc1cc2c(cn1)c(-c1ncco1)nn2[C@H]1CC[C@@H](Oc2ccc(=O)n(C)n2)CC1
[reply] 1000 to 10000 nM

[ask] Fill blank: measured IC50 of the compound CCNc1cc2c(cn1)c(-c1ccc3c(c1)CNS3(=O)=O)nn2[C@H]1CC[C@@H](Oc2cn(C)nc2C(F)(F)F)CC1 is ____.
[reply] < 10 nM

[ask] I have this compound here, CCNc1cc2c(cn1)c(-c1ccc3c(c1)CN(C)S3(=O)=O)nn2[C@H]1CC[C@@H](Oc2cnn(C)c2C(F)(F)F)CC1 , and I need its recorded IC50.
[reply] 1000 to 10000 nM

[ask] I am curious: what IC50 value has been reported for CCNc1cc2c(cn1)c(-c1cnn(C)c1)nn2[C@H]1CC[C@@H](Oc2cccc(F)c2F)CC1 ?
[reply] < 10 nM

Taken from patent US11247990B1.
